- Test system: HEK-293T
- Assay Remarks: Incucyte cell viability with HEK293T; also: unitless GR value; below 1 slowed growth and below 0 cell loss
- Assay type: toxicity, cell-based
- Assay Setup: human, 24 h, 10 µM, compound concentration 10 uM, replicate number 2
Peptide text beside a SMILES is read from it. * marks the point of attachment. Boc = CC(C)(C)OC(=O)*
Reported Property: Growth Rate

>>> test_value("CNC(=O)c1cc(Nc2ccnc(Nc3ccc(CCNC(=O)OC(C)(C)C)cc3)n2)[nH]n1")
0.24
>>> test_value("CC(=O)N[C@@H](Cc1ccc(O)cc1)C(=O)N[C@H](C(=O)N[C@@H](C)C(=O)N[C@H](C=O)CC(=O)O)C(C)C")
0.86
>>> test_value("O=C([O-])CCNc1cc(N2CCc3ccccc3CC2)nc(-c2cccnc2)n1.[Na+]")
0.92
>>> test_value("CCC[C@H]1CNCc2c1[nH]c(=O)c(C#N)c2N1CCC2(CC1)CC2.Cl")
0.9
>>> test_value("Cn1c(=O)c2c(nc(N3CCNCC3)n2Cc2nnc(-c3ccc(Cl)c(Cl)c3)o2)n(C)c1=O")
1
>>> test_value("CS(=O)(=O)c1ccc(-c2cnc(NCc3ccco3)n3cnnc23)cc1")
0.95
>>> test_value("CC/C(=C(/CC)c1ccc(O)cc1)c1ccc(O)cc1")
0.87
>>> test_value("COc1nc(N)nc(Nc2cc(S(N)(=O)=O)ccc2N[C@@H](c2cccc3c2OC(F)(F)O3)c2ncccc2Cl)n1")
1
>>> test_value("Cc1cc(-c2ccc3nc(C4CCOCC4)n(CCOC(F)(F)F)c3c2)cn(C)c1=O")
0.67
>>> test_value("COc1cc(C(C)C)c2c(c1)S(=O)(=O)N(COc1cc(=O)n3cccc(OCCN4CCCCC4)c3n1)C2=O")
-0.01
>>> test_value("CNc1ncc2cc(-c3cc(NC(=O)NCCC(C)(C)C)c(F)cc3C)c(C)nc2n1")
0.63
>>> test_value("CC(C)[C@H](NC(=O)[C@H](CCC(=O)O)NC(=O)[C@H](C)NC(=O)OC(C)(C)C)C(=O)N[C@H](C=O)CC(=O)O.O=C(O)C(F)(F)F (Boc-AEVD-aldehyde)")
0.93
>>> test_value("CC(C)(CNC(=O)c1cccc(-c2noc(C(F)(F)F)n2)c1)c1coc(-c2ccccc2)n1")
0.79
>>> test_value("C[C@H](NC(=O)[C@H](Cc1ccccc1)NC(=O)OCc1ccccc1)C(=O)CF")
0.77
>>> test_value("COc1cc(Nc2ncc(F)c(Nc3ccc4c(n3)N(COP(=O)([O-])[O-])C(=O)C(C)(C)O4)n2)cc(OC)c1OC.O.O.O.O.O.O.[Na+].[Na+] [FOSTAMATINIB DISODIUM]")
0.51
>>> test_value("CC[C@H](C)[C@H](NC(=O)[C@H](CCC(=O)O)NC(=O)[C@@H](NC(C)=O)C(C)C)C(=O)N[C@H](C=O)CC(=O)O.O=C(O)C(F)(F)F (Ac-VEID-aldehyde)")
0.97

Cited source for all entries: ChEMBL document CHEMBL5724709
